# diameter of the inhibition zone (DIZ) annotations
Test system: Saccharomyces cerevisiae
MEASUREMENT_NOTES: Antifungal activity against Saccharomyces cerevisiae at 2 to 64 ug/ml after 7 days by agar well diffusion method
Type: functional
Express your answer in mm, writing the number without its unit.

Below: 3 compounds and their reported diameter of the inhibition zone (DIZ).
Nc1nn(-c2nc3ccccc3s2)c(N)c1/N=N/c1ccc(F)cc1; 9
Nc1nn(-c2ccc([N+](=O)[O-])cc2[N+](=O)[O-])c(N)c1/N=N/c1ccc(F)cc1; 12
Nc1nn(-c2ccccc2)c(N)c1/N=N/c1ccc(F)cc1; 12

Can you look up the measured diameter of the inhibition zone (DIZ) of Cc1cc(C)nc(-n2nc(N)c(/N=N/c3ccc(F)cc3)c2N)n1 for me? 10

Reported diameter of the inhibition zone (DIZ) for OC(Cn1cncn1)(Cn1cncn1)c1ccc(F)cc1F : what is it? 12

----------
System: Klebsiella aerogenes
MEASUREMENT_NOTES: Antibacterial activity against Enterobacter aerogenes at 2 to 64 ug/ml after 24 hr by agar well diffusion method
Format: functional
MEASUREMENT_LABEL: diameter of the inhibition zone (DIZ) (mm)
Your answer should be a plain number; it is taken to be in mm.

Cc1ccc2nc(-n3nc(N)c(/N=N/c4ccc(F)cc4)c3N)sc2c1; 10.5
Nc1nn(-c2ccc(Cl)cc2)c(N)c1/N=N/c1ccc(F)cc1; 12
C=CC1=C(C(=O)O)N2C(=O)[C@@H](NC(=O)/C(=N\OCC(=O)O)c3csc(N)n3)[C@H]2SC1 [CEFIXIME]; 15

Reported diameter of the inhibition zone (DIZ) for Nc1nn(-c2nc3ccccc3s2)c(N)c1/N=N/c1ccc(F)cc1 : what is it? 14

GET /values?readout=diameter of the inhibition zone (DIZ)&item= Nc1nn(-c2nc3ccc(F)cc3s2)c(N)c1/N=N/c1ccc(F)cc1 11

Fill in the blank: the reported diameter of the inhibition zone (DIZ) of Nc1nn(-c2ccccc2)c(N)c1/N=N/c1ccc(F)cc1 is ____. 12

Return reported diameter of the inhibition zone (DIZ); argument: Nc1nn(-c2nc3ccc(Cl)cc3s2)c(N)c1/N=N/c1ccc(F)cc1 10

Recorded diameter of the inhibition zone (DIZ) of Cc1cc(C)nc(-n2nc(N)c(/N=N/c3ccc(F)cc3)c2N)n1 , please. 9

I would be grateful if you could share the reported diameter of the inhibition zone (DIZ) for Cc1cc(-n2nc(N)c(/N=N/c3ccc(F)cc3)c2N)nc2ccccc12 . 15

Please give the measured diameter of the inhibition zone (DIZ) for this molecule: Nc1nn(-c2ccc([N+](=O)[O-])cc2[N+](=O)[O-])c(N)c1/N=N/c1ccc(F)cc1 13

----------
Tested on: Bacillus subtilis
MEASUREMENT_NOTES: Antibacterial activity against Bacillus subtilis at 2 to 64 ug/ml after 24 hr by agar well diffusion method
Format: functional
MEASUREMENT_LABEL: diameter of the inhibition zone (DIZ) (mm)
Kindly provide the numeric value in mm only, without the unit symbol.

Before answering, review these 5 worked examples.
C=CC1=C(C(=O)O)N2C(=O)[C@@H](NC(=O)/C(=N\OCC(=O)O)c3csc(N)n3)[C@H]2SC1 [CEFIXIME]; 2.8
Nc1nn(-c2nc3ccccc3s2)c(N)c1/N=N/c1ccc(F)cc1; 9
Nc1nn(-c2ccccc2)c(N)c1/N=N/c1ccc(F)cc1; 10
Nc1nn(-c2nc3ccc(F)cc3s2)c(N)c1/N=N/c1ccc(F)cc1; 12
Cc1cc(-n2nc(N)c(/N=N/c3ccc(F)cc3)c2N)nc2ccccc12; 12

Record lookup: for Bacillus subtilis, what diameter of the inhibition zone (DIZ) belongs to Nc1nn(-c2ccc([N+](=O)[O-])cc2[N+](=O)[O-])c(N)c1/N=N/c1ccc(F)cc1 ? 10

----------
System: Escherichia coli
MEASUREMENT_NOTES: Antibacterial activity against Escherichia coli at 2 to 64 ug/ml after 24 hr by agar well diffusion method
Type: functional
Parameter: diameter of the inhibition zone (DIZ). Scope: all listed entries.

Nc1nn(-c2nc3ccccc3s2)c(N)c1/N=N/c1ccc(F)cc1; 12 mm
Nc1nn(-c2ccccc2)c(N)c1/N=N/c1ccc(F)cc1; 12 mm
Nc1nn(-c2ccc([N+](=O)[O-])cc2[N+](=O)[O-])c(N)c1/N=N/c1ccc(F)cc1; 13 mm
C=CC1=C(C(=O)O)N2C(=O)[C@@H](NC(=O)/C(=N\OCC(=O)O)c3csc(N)n3)[C@H]2SC1 [CEFIXIME]; 14 mm

Now look at this one.
Given the entry Cc1cc(-n2nc(N)c(/N=N/c3ccc(F)cc3)c2N)nc2ccccc12 , what diameter of the inhibition zone (DIZ) was observed with Escherichia coli? 15 mm

----------
Each entry below lists one item and its recorded MIC value.
Test system: Saccharomyces cerevisiae
MEASUREMENT_NOTES: Antifungal activity against Saccharomyces cerevisiae after 7 days by agar well diffusion method
Assay type: functional
CONDITION_SUMMARY: 168 h
Field format: number, assumed µg/mL, no unit text.

These solved cases illustrate the format of a correct answer.
OC(Cn1cncn1)(Cn1cncn1)c1ccc(F)cc1F; 4
Nc1nn(-c2ccc([N+](=O)[O-])cc2[N+](=O)[O-])c(N)c1/N=N/c1ccc(F)cc1; 8

Query (compound): Nc1nn(-c2nc3ccccc3s2)c(N)c1/N=N/c1ccc(F)cc1 ; field requested: MIC 6

// returns reported MIC for input Nc1nn(-c2ccccc2)c(N)c1/N=N/c1ccc(F)cc1 4

Tell me the measured MIC of Cc1cc(C)nc(-n2nc(N)c(/N=N/c3ccc(F)cc3)c2N)n1 , please. 8
